Molecular target: T1, cyno TfR extracellular domain (analogous construct to human TfR ecd) (cynomolgus monkey, UniProt Q5RDH6 87-760 (Pongo abelii entry))
T1 construct: also called cynoTfR ecd
T1 chain: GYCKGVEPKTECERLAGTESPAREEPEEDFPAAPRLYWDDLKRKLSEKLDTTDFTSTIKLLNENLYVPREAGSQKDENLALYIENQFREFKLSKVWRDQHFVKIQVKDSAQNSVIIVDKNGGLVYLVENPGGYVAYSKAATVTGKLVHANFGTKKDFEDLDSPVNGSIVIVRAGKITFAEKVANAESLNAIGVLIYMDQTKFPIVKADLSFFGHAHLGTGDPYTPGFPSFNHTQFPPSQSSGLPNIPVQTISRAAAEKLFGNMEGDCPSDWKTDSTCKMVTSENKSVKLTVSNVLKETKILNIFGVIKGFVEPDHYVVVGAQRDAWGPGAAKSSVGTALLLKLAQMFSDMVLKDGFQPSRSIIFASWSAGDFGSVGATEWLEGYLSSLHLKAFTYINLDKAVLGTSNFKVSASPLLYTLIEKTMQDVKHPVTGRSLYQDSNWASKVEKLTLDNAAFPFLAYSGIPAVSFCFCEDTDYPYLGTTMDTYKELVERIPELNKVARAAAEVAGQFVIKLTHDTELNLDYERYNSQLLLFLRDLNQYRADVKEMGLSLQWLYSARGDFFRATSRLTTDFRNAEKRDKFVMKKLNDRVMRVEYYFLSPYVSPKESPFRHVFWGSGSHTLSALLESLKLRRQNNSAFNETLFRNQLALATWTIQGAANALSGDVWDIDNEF
Test: SPR, KD on cyno TfR over KD on human TfR
For each record, write down the corresponding Cy/hu ratio.

What value of measured Cy/hu ratio is listed for Mu16F6.Fab (Fab, V domains shown, Fab; also called mouse 16F6 Fab) VH: DVQLQESGPGLVKPSQSLSLTCTVTGNSITSEYAWNWIRQFPGNKLEWMGYISYSGTTSYNPSLKSRISITRDTSKNQLFLQLNSVTTEDTATYFCARYGYGNPATRYFDVWGAGTTVTVSS VL: DVQITQSPSYLTASPGETITINCRASKSISKYLAWYQEKPGKTNKLLIYSGSTLQSGIPSRFSGSGSGTDFTLTISNLEPEDFAMYYCQQHNEYPWTFGGGTKLEIK ?
8.56

Could you share which Cy/hu ratio value was measured for Hu16F6.v4.Fab (Fab, V domains shown, Fab) VH: EVQLVESGPGLVKPSETLSLTCTVSGNSITSEYAWNWIRQPPGKGLEWIGYISYSGTTSYNPSLKSRVTISRDTSKNQLSLKLSSVTAADTAVYYCARYGYGNPATRYFDVWGQGTLVTVSS VL: DIQMTQSPSSLSASVGDRVTITCRASKSISKYLAWYQQKPGKTNKLLLYSGSTLQSGVPSRFSGSGSGTDYTLTISSLQPEDFATYYCQQHNEYPWTFGQGTKVEIK ?
19.1

What value of measured Cy/hu ratio is listed for hu7A4.v15.Fab (Fab, V domains shown, Fab) VH: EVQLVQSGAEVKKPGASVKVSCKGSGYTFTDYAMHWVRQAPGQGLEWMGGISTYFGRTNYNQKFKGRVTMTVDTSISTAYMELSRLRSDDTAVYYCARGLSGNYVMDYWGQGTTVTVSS VL: DIVMTQSPDSLAVSLGERATINCRASESVDSYGNSFMHWYQQKPGQPPKLLIYRASNLESGVPDRFSGSGSRTDFTLTISSLQAEDVAVYYCQQSNEAPPTFGQGTKLEIK ?
11

What measured Cy/hu ratio goes with Hu15G11.v5.Fab (Fab, V domains shown, Fab) VH: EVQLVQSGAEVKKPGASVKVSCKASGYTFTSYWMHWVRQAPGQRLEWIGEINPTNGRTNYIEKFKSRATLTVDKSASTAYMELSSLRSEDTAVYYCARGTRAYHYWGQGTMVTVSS VL: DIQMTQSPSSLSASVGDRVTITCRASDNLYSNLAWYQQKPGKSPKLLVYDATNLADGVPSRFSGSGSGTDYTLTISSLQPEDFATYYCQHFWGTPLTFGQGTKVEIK ?
3.4

# input binder: Mu7A4.Fab (Fab, V domains shown, Fab; also called mouse 7A4 Fab) VH: QVQLQQSGPELVRPGVSVKISCKGSGYTFTDYAMHWVKQSHAKSLEWIGGISTYFGRTNYNQKFKGRATMTVDKSSSTAYMELARLTSEDSALYYCARGLSGNYVMDYWGQGTSVTVSS VL: DIVLTQSPASLAVSLGQRATISCRASESVDDYGNSFMHWYQQKPGQPPKLLIYRASNLESGIPARFSGSGSRTDFTLTINPVEADDVATYYCQQSNEAPPTFGGGTKLEIR ; wanted: its Cy/hu ratio
3.9
